Reported stoichiometry N is given for each of the following binders.
target system: proliferating cell nuclear antigen (PCNA) (UniProt P12004 1-261)
Sequence (P12004 whole entry): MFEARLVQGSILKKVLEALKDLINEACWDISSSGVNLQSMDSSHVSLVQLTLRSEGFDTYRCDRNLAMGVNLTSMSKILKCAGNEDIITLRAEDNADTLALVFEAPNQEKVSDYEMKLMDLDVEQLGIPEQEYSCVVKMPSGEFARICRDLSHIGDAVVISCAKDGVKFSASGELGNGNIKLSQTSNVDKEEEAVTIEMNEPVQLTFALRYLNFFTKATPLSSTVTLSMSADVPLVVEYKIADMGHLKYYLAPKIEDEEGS
protocol notes: ITC
Answer as a number with no unit attached.

Problem: Note down stoichiometry N recorded for Ac-RRRRQTSMTDFYHSRRR-NH2 [p21_(All–R) peptide]
Solution: 0.68

Problem: Quick one: give measured stoichiometry N for Ac-KKKKQTSMTDFYHSKKK-NH2 [p21_(All–K) peptide]
Solution: 0.71

Problem: // Input: Ac-QTSMTDFYHS-NH2 [p21_(core) peptide (isolated p21 core motif QTSMTDFYHS)] . Output its stoichiometry N only.
Solution: 0.71

Problem: Identify measured stoichiometry N associated with Ac-RKRRQTSMTDFYHSKRR-NH2 [p21_(140–156) peptide (wild-type p21 PIP-degron with flanking regions)]
Solution: 0.76

Problem: Given Ac-KRKKQTSMTDFYHSRKK-NH2 [p21_(SWAP) peptide] , respond with its stoichiometry N.
Solution: 0.82
